Reference source for all entries: ChEMBL document CHEMBL4382205

assayed_target: Tryptophan 2,3-dioxygenase (Homo sapiens, UniProt P48775)
Sequence (P48775 whole entry): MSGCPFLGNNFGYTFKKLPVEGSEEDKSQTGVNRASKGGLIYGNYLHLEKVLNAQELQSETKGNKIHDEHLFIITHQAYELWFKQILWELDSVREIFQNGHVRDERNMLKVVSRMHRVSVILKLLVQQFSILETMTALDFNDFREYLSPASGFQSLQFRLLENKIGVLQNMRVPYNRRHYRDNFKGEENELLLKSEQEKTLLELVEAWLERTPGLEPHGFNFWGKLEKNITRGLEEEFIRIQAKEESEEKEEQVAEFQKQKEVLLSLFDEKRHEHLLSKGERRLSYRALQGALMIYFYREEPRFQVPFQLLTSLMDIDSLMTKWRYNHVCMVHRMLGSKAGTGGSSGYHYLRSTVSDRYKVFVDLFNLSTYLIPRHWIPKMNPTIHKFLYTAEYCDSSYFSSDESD
procedure_text: Inhibition of TDO (unknown origin) expressed in HEK293 cells using L-Trp as substrate after 8 hrs
Type: cell-based
pIC50: −log10 of the molar value.
reported_endpoint: pIC50

Known results for compounds:
In [3]: df
Out[3]:
                                  structure                            assayed_target  measured_number
0        O=C1c2c(Cl)cccc2-n2c1nc1ccccc1c2=O  Tryptophan 2,3-dioxygenase (Homo sapiens, UniProt P48775)             6.64
1         O=C1c2cc(F)ccc2-n2c1nc1ccccc1c2=O  Tryptophan 2,3-dioxygenase (Homo sapiens, UniProt P48775)             7.17
2  O=C1c2cc([N+](=O)[O-])ccc2-n2c1nc1ccccc1c2=O  Tryptophan 2,3-dioxygenase (Homo sapiens, UniProt P48775)             7.21
3     Cc1ccc2c(c1)C(=O)c1nc3ccccc3c(=O)n1-2  Tryptophan 2,3-dioxygenase (Homo sapiens, UniProt P48775)             6.67
4      O=C1c2cc(F)ccc2-n2c1nc1ccc(F)cc1c2=O  Tryptophan 2,3-dioxygenase (Homo sapiens, UniProt P48775)             7.23

[P] O=C1c2ccc(Cl)cc2-n2c1nc1ccccc1c2=O
[Q] NS(=O)(=O)NCCNc1nonc1C(=NO)Nc1ccc(F)c(Br)c1
[R] O=C1c2cc(Br)ccc2-n2c1nc1ccccc1c2=O
[S] O=C1c2ccccc2-n2c1nc1ccccc1c2=O
Given 4 compounds, produce a descending ranking by pIC50. Show the ranking through the labels, in the order asked for.
R, S, Q, P
(R: 7.28, S: 6.85, Q: 6.62, P: 6.13)
